# System: PPARg:RXRa (NR concentration 180 nM, RXRa partner concentration 90 nM)
# Experimental Protocol: PBM binding z-score (relative to random genomic background probes); higher = stronger binding; sequences stand for … in GC…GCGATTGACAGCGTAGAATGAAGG
Categorize each record by its PBM binding z-score using lower band (below 0.6), central band (0.6 to below 2), upper band (2 or more)

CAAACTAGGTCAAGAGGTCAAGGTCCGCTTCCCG	upper band
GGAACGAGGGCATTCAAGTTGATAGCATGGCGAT	central band
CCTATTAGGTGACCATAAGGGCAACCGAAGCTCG	central band
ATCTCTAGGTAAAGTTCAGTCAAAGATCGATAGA	upper band
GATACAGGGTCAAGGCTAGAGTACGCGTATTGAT	upper band
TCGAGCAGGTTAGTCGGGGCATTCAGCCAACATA	lower band
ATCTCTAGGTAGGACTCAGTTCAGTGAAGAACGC	lower band
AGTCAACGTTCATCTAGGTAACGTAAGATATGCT	central band

Enquiry: State the band of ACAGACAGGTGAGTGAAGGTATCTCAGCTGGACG
Return: lower band

Enquiry: Form: Item = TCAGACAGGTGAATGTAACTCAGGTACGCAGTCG ; Class = ?
Return: central band

Enquiry: Given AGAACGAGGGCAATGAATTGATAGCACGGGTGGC , name the class its PBM binding z-score places it in.
Return: central band

Enquiry: Which class does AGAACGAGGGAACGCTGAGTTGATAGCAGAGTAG fall in?
Return: lower band

Enquiry: Hi there! Could you help me figure out the category for CTACCAAGGTGAATAAGGTCGTTGATTACTATTC please?
Return: central band

Enquiry: Record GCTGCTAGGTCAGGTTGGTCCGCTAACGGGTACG — which class?
Return: lower band

Enquiry: Tag the class for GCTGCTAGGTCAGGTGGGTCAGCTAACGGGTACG
Return: central band

Enquiry: Assign a bin to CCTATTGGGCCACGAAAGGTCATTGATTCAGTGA
Return: upper band

Enquiry: Band assignment needed for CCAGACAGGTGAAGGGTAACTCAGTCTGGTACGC please.
Return: upper band

Enquiry: Just checking, what class would you give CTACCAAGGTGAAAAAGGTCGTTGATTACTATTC here?
Return: central band

Enquiry: Band for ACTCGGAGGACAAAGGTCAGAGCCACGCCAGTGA ?
Return: upper band

Enquiry: Bin? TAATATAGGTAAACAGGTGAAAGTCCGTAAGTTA
Return: upper band

Enquiry: Quick check: band for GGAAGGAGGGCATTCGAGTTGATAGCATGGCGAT
Return: central band

Enquiry: Which category fits this record: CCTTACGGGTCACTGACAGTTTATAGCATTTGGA
Return: upper band

Enquiry: Classify this sequence: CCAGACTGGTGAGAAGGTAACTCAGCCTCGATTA
Return: lower band
